system: SK-MEL-2; assay: NCI tumour cell line growth inhibition, 48 h
Active and inactive are the calls of the source. No stated cut-off is given here; in the data, active = GI50 up to about 1.1 µM and inactive = higher.
Possible outcomes: yes (1) (active), no (0) (inactive)

> print(dat)
                                    compound  test.system  assigned.label
 1  O=C1CCCC2C3CC(CN12)C1CCCCN1C3.[O-][Cl+3]([O-])([O-])O (configuration not stated)     SK-MEL-2          no (0)
 2  O=C(CC(C(=O)c1cccs1)c1ccsc1)c1ccc(Cl)cc1 (configuration not stated)     SK-MEL-2          no (0)
 3  COC(=O)c1c2c(cc3c1CC1(Cc4cc5c(c(C=O)c4C1)CCCC5)C3)CCCC2 (configuration not stated)     SK-MEL-2          no (0)
 4             CN(C)c1ccc2c(=O)c3ccccc3oc2n1     SK-MEL-2          no (0)
 5                 C/C=C/C=C/c1nc(C#N)c(N)o1     SK-MEL-2          no (0)
 6                  CSc1snc2sc3c(Cl)nnnc3c12     SK-MEL-2          no (0)
 7    Nn1c(Cc2ccc([N+](=O)[O-])cc2)n[nH]c1=O     SK-MEL-2          no (0)
 8  Nc1nc(Cl)nc2c1ncn2C1CCC(CO)O1 (configuration not stated)     SK-MEL-2          no (0)
 9  OCCNC1c2cc(Cl)ccc2-c2c(Cl)cc(Cl)cc21 (configuration not stated)     SK-MEL-2          no (0)
10  O=C1NC2(CCCC2)C2CCCCC12O (configuration not stated)     SK-MEL-2          no (0)
11  NS(=O)(=O)c1ccc(/N=N/c2nc3[nH]cnc(=S)c3[nH]2)cc1     SK-MEL-2         yes (1)
12  Cc1nc([N+](=O)[O-])cn1-c1nc2ccccn2c1[N+](=O)[O-]     SK-MEL-2          no (0)
